Molecular target: androgen receptor (AR-LBD) (Rattus norvegicus, UniProt P15207)
Construct: 5 μL of 2×AR-LBD/Fluoromone AL Red Complex contained in the kit; purchased Invitrogen
Sequence (P15207 651-882 limits assumed): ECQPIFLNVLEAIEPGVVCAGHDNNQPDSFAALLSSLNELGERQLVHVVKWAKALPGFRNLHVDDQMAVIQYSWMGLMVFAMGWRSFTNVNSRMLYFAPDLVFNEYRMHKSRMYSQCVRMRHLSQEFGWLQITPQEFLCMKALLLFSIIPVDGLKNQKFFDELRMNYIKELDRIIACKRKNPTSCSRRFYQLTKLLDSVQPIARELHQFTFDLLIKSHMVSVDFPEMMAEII
Experiment: Evaluation of androgen receptor affinity (PolarScreen Androgen Receptor Competitor Assay Kit, Red; fluorescence polarization)
Settings: 22° C. for 5 hours, relative to binding rate of 1 μM DHT, read-out: AR affinity (pEC50) (converted)
Procedure: Evaluation of an Androgen Receptor Affinity To examine the interaction of a compound with an androgen receptor, evaluation was carried out in accordance with the following procedure using PolarScreen™ Androgen Receptor Competitor Assay Kit, Red (Invitrogen). To 2 wells each of a 384 well black plate was added 5 μL of the compound solution. […] After 5 hours of the reaction, fluorescence polarization was measured and the affinity was evaluated. […]
measurement-kind: EC50

Query :: Need EC50 of Cc1sc(N(CCc2ccc(Cl)cc2)Cc2ccc(Cl)cc2)nc1C(=O)NS(=O)(=O)C(F)(F)F [Compound 696] , thanks.
Result :: 200 nM

Query :: Need EC50 of Cc1sc(N(CCc2ccc(C#N)cc2)Cc2ccc(Cl)cc2)nc1C(=O)NS(=O)(=O)C1CC1 [Compound 714] , thanks.
Result :: 79.4 nM

Query :: Need EC50 of COC[C@@H](C)Oc1ccc(CN(c2ccc(C#N)cc2)c2nc(C(=O)NS(C)(=O)=O)c(C)s2)cc1 [Compound 583] , thanks.
Result :: 39.8 nM

Query :: Need EC50 of CS(=O)(=O)NC(=O)c1nc(N(Cc2ccc(OC(F)F)cc2)c2ccc(C#N)cc2)sc1Br [Example 256] , thanks.
Result :: 50.1 nM

Query :: Need EC50 of Cc1sc(N(Cc2nc(C3CC3)no2)c2ccc(C#N)cc2)nc1C(=O)NS(C)(=O)=O [Example 196] , thanks.
Result :: 631 nM

Query :: Need EC50 of COCCCS(=O)(=O)NC(=O)c1nc(N(Cc2nc(C3CC3)no2)c2ccc(C#N)cc2)sc1C [Example 197] , thanks.
Result :: 1260 nM

Query :: Need EC50 of COCCCS(=O)(=O)NC(=O)c1nc(N(Cc2ccc(Cl)cc2)c2ccc(C#N)cc2)sc1C1CC1 [Compound 665] , thanks.
Result :: 20 nM

Query :: Need EC50 of CS(=O)(=O)NC(=O)c1nc(N(Cc2ccc(Cl)cc2)c2ccc(C#N)cc2)sc1Br [Example 248] , thanks.
Result :: 31.6 nM

Query :: Need EC50 of Cc1sc(N(Cc2ccc3occc3c2)c2ccc(C#N)cc2)nc1C(=O)NS(C)(=O)=O [Compound 26] , thanks.
Result :: 63.1 nM

Query :: Need EC50 of Cc1sc(N(Cc2cnc(C3CC3)s2)c2ccc(C#N)cc2)nc1C(=O)NS(C)(=O)=O [Compound 466] , thanks.
Result :: 100 nM

Query :: Need EC50 of Cc1sc(N(Cc2ccc(Cl)cc2)Cc2csc3cc(C#N)ccc23)nc1C(=O)NS(C)(=O)=O [Example 305] , thanks.
Result :: > 2000 nM

Query :: Need EC50 of Cc1sc(N(CCc2ccc(F)cc2)Cc2ccccc2)nc1C(=O)NS(C)(=O)=O [Compound 340] , thanks.
Result :: 100 nM

###

Would you mind telling me the reported log10 of EC50 of each entry?
Molecular target: androgen receptor (AR-LBD) (Rattus norvegicus, UniProt P15207)
Construct: 5 μL of 2×AR-LBD/Fluoromone AL Red Complex contained in the kit; purchased Invitrogen
Assay: Evaluation of androgen receptor affinity (PolarScreen Androgen Receptor Competitor Assay Kit, Red; fluorescence polarization)
Conditions: 22° C. for 5 hours, relative to binding rate of 1 μM DHT, read-out: AR affinity (pEC50) (converted)
Protocol: Evaluation of an Androgen Receptor Affinity To examine the interaction of a compound with an androgen receptor, evaluation was carried out in accordance with the following procedure using PolarScreen™ Androgen Receptor Competitor Assay Kit, Red (Invitrogen). To 2 wells each of a 384 well black plate was added 5 μL of the compound solution. […] After 5 hours of the reaction, fluorescence polarization was measured and the affinity was evaluated. […]
Please interpret these as log10 of EC50 where EC50 is in nM.

Query :: Need log10 of EC50 of Cc1oc(N(CCc2ccc(OC(F)(F)F)cc2)Cc2ccc(Cl)cn2)nc1C(=O)NS(C)(=O)=O [Compound 561] , thanks.
Result :: 1.60

Query :: Need log10 of EC50 of Cc1sc(N(Cc2ccc(OC(F)(F)F)cc2)c2ccc(C#N)cc2)nc1C(=O)NS(=O)(=O)Cc1cccnc1 [Compound 121] , thanks.
Result :: 1.40

Query :: Need log10 of EC50 of COCCCS(=O)(=O)NC(=O)c1nc(N(CCc2ccc(OC(F)(F)F)cc2)Cc2ccc(C(F)(F)F)nc2)oc1C [Compound 565] , thanks.
Result :: 1.80

Query :: Need log10 of EC50 of COc1cccc(CN(c2ccc(C#N)cc2)c2nc(C(=O)NS(C)(=O)=O)c(Br)s2)c1 [Example 265] , thanks.
Result :: 1.70

Query :: Need log10 of EC50 of Cc1sc(N(Cc2ccccc2)c2ccc(C#N)c(F)c2)nc1C(=O)NS(C)(=O)=O [Example 222] , thanks.
Result :: 2.30

Query :: Need log10 of EC50 of Cc1sc(N(Cc2ncc(Cl)cc2F)c2ccc(C#N)cc2)nc1C(=O)NS(C)(=O)=O [Example 168] , thanks.
Result :: 2.00

Query :: Need log10 of EC50 of Cc1sc(N(Cc2ccc(OCc3ccccn3)cc2)c2ccc(C#N)cc2)nc1C(=O)NS(C)(=O)=O [Compound 568] , thanks.
Result :: 2.20

Query :: Need log10 of EC50 of Cc1oc(N(Cc2ccc(C#N)cc2)c2ccc(C#N)cc2)nc1C(=O)NS(C)(=O)=O [Compound 615] , thanks.
Result :: 2.60

Query :: Need log10 of EC50 of Cc1sc(N(CCOC2CCCCC2)c2ccc(C#N)cc2)nc1C(=O)NS(C)(=O)=O [Compound 370] , thanks.
Result :: 1.90

Query :: Need log10 of EC50 of COc1ccc(N(Cc2ccccc2)c2nc(C(=O)NS(C)(=O)=O)c(C)s2)cc1 [Compound 21] , thanks.
Result :: 3.20

Query :: Need log10 of EC50 of Cc1sc(N(Cc2cccc(SC(F)(F)F)c2)c2ccc(C#N)cc2)nc1C(=O)NS(C)(=O)=O [Compound 57] , thanks.
Result :: 1.50

Query :: Need log10 of EC50 of COC[C@H](C)Oc1ccc(CN(c2ccc(C#N)cc2)c2nc(C(=O)NS(C)(=O)=O)c(C)s2)cc1 [Compound 584] , thanks.
Result :: 1.90

Query :: Need log10 of EC50 of Cc1sc(N(Cc2cc(Cl)ccc2F)c2ccc(C#N)cc2)nc1C(=O)NS(C)(=O)=O [Compound 126] , thanks.
Result :: 1.80

Query :: Need log10 of EC50 of Cc1sc(N(Cc2ccc(OCCCO)cc2)c2ccc(C#N)cc2)nc1C(=O)NS(C)(=O)=O [Compound 579] , thanks.
Result :: 2.30

Query :: Need log10 of EC50 of Cc1ccccc1CN(c1ccc(C#N)cc1)c1nc(C(=O)NS(C)(=O)=O)c(C)s1 [Compound 45] , thanks.
Result :: 2.20
